Each recorded value in this set is attributed to patent US20220274987A1.

I'd be grateful if you could share measured IC50 for these entries.
- Test system: Plasmodium falciparum 3D7 strain
- procedure-details: In vitro susceptibility assay of P. falciparum, SYBR Green I
- Assay type: cell-based
- cond: Plasmodium falciparum; P. falciparum (3D7), 48 h; read-out: IC50
- Procedure: The principle of the in vitro susceptibility test to malaria is to assess the degree of development of parasites P. falciparum in the presence of different concentrations of the compounds. In the present disclosure, the antimalarial activity was also evaluated. Each compound was lyophilized and solubilized in DMSO (Sigma-Aldrich) to obtain a final concentration of 5 mM. Some intermediate dilutions were made to achieve the final concentration of 10 μM in the first well of the plate. […]
Number in nM, nothing else.

stdin: Note down IC50 recorded for CC(C)[C@H]1NC(=O)[C@@H](Cc2c[nH]c3ccccc23)n2c1nc1ccccc1c2=O
stdout: 150

stdin: Note down IC50 recorded for CC(C)C[C@@H]1NC(=O)[C@@H](Cc2c[nH]c3ccccc23)n2c1nc1cnccc1c2=O
stdout: 4000

stdin: Note down IC50 recorded for CC(C)C[C@@H]1NC(=O)[C@@H](Cc2c[nH]c3ccccc23)n2c1nc1ccc(O)cc1c2=O
stdout: 730

stdin: Note down IC50 recorded for CC(C)C[C@H]1NC(=O)[C@H](Cc2c[nH]c3ccccc23)n2c1nc1ccccc1c2=O
stdout: 2000

====

- Tested on: S. aureus 66/1 (MRSA)
- procedure-details: MIC/MBC broth dilution (CLSI), MRSA
- Type: cell-based
- cond: Staphylococcus aureus
- Description: In the present disclosure, two Gram-positive—Staphylococcus aureus ATCC 29213 and Enterococcus faecalis ATCC […] and two Gram-negative—Escherichia coli ATCC 25922 and Pseudomonas aeruginosa ATCC 27853—reference bacterial strains were used. When it was possible to determine a minimal inhibitory concentration (MIC) value for these strains, clinically relevant strains were also used. […]
experimental-endpoint: MIC

stdin: Note down MIC recorded for CC(C)[C@@H]1NC(=O)[C@@H](Cc2c[nH]c3ccccc23)n2c1nc1c(Cl)cc(Cl)cc1c2=O
stdout: > 64 µg/mL

stdin: Note down MIC recorded for CC[C@H](C)[C@@H]1NC(=O)[C@@H](Cc2c[nH]c3ccccc23)n2c1nc1ccc(Cl)cc1c2=O
stdout: > 64 µg/mL

stdin: Note down MIC recorded for CC(C)C[C@@H]1NC(=O)[C@@H](Cc2c[nH]c3ccccc23)n2c1nc1ccc(I)cc1c2=O
stdout: > 64 µg/mL

stdin: Note down MIC recorded for CC(C)[C@@H]1NC(=O)[C@@H](Cc2c[nH]c3ccccc23)n2c1nc1ccc(Cl)cc1c2=O
stdout: > 64 µg/mL

====

I'd be grateful if you could share measured IC50 for these entries.
- Tested on: Plasmodium falciparum 3D7 strain
- procedure-details: In vitro susceptibility assay of P. falciparum, SYBR Green I
- Assay type: cell-based
- cond: Plasmodium falciparum; P. falciparum (3D7), 48 h; read-out: IC50
Number in µM, nothing else.

stdin: Note down IC50 recorded for C[C@H]1NC(=O)[C@@H](Cc2c[nH]c3ccccc23)n2c1nc1ccccc1c2=O
stdout: 3.68

stdin: Note down IC50 recorded for CC(C)C[C@@H]1NC(=O)[C@@H](Cc2c[nH]c3ccccc23)n2c1nc1ccccc1c2=O
stdout: 0.05

stdin: Note down IC50 recorded for CC(C)C[C@@H]1NC(=O)[C@@H](Cc2c[nH]c3ccccc23)n2c1nc1ncccc1c2=O
stdout: 3.76

stdin: Note down IC50 recorded for O=C1N[C@H](Cc2ccc(O)cc2)c2nc3ccccc3c(=O)n2[C@H]1Cc1c[nH]c2ccccc12
stdout: 4.18

stdin: Note down IC50 recorded for CC(C)C[C@@H]1NC(=O)[C@@H](Cc2cc3ccccc3[nH]2)n2c1nc1cc(-c3nnnn3C)ccc1c2=O
stdout: 1.02

stdin: Note down IC50 recorded for CC(C)C[C@H]1NC(=O)[C@@H](Cc2c[nH]c3ccccc23)n2c1nc1ccccc1c2=O
stdout: 0.47

stdin: Note down IC50 recorded for CC(C)[C@@H]1NC(=O)[C@@H](Cc2c[nH]c3ccccc23)n2c1nc1ccccc1c2=O
stdout: 0.1

====

I'd be grateful if you could share measured MIC for these entries.
- Test system: S. aureus 66/1 (MRSA)
- procedure-details: MIC/MBC broth dilution (CLSI), MRSA
- Format: cell-based
- cond: Staphylococcus aureus
Number in µg/mL, nothing else.

stdin: Note down MIC recorded for CCC(C)[C@@H]1NC(=O)[C@@H](Cc2c[nH]c3ccccc23)n2c1nc1c(Cl)cc(Cl)cc1c2=O (stereo partly shown) [Compound 32]
stdout: 8

stdin: Note down MIC recorded for CC(C)C[C@@H]1NC(=O)[C@@H](Cc2c[nH]c3ccccc23)n2c1nc1c(Cl)cc(Cl)cc1c2=O [Compound 31]
stdout: 8

====

- System: Plasmodium falciparum 3D7 strain
- procedure-details: In vitro susceptibility assay of P. falciparum, SYBR Green I
- Type: cell-based
- cond: P. falciparum 3D7
experimental-endpoint: antimalarial activity (in words)

CC(C)[C@@H]1NC(=O)[C@H](Cc2c[nH]c3ccccc23)n2c1nc1ccccc1c2=O = inactive
CC(C)C[C@@H]1NC(=O)[C@H](Cc2c[nH]c3ccccc23)n2c1nc1ccccc1c2=O = inactive
CC(C)C[C@H]1NC(=O)[C@@H](Cc2c[nH]c3ccccc23)n2c1nc1ccccc1c2=O = decreased activity
CC(C)[C@H]1NC(=O)[C@@H](Cc2c[nH]c3ccccc23)n2c1nc1ccccc1c2=O = decreased activity
